Cited source for all entries: paper PMC7076352

# ASSAY_REMARKS: in vivo
# Design: species or system Sprague-Dawley (SD) rats
# DETAILS: Sprague-Dawley, plasma; 3 h after oral CNP, rat
QUANTITY: concentration at 3 h (ng/mL)
Output spec: scalar in ng/mL, unitless text.

Prompt: Return reported concentration at 3 h; argument: CC(C)=CCC[C@](C)(O[C@@H]1O[C@H](CO)[C@@H](O)[C@H](O)[C@H]1O)[C@H]1CC[C@]2(C)[C@@H]1[C@H](O)C[C@@H]1[C@@]3(C)CC[C@H](O)C(C)(C)[C@@H]3[C@@H](O[C@@H]3O[C@H](CO)[C@@H](O)[C@H](O)[C@H]3O[C@@H]3OC[C@@H](O)[C@H](O)[C@H]3O)C[C@]12C [NGR1, notoginsenoside R1]
Response: 0.44

Prompt: Data request, read-out concentration at 3 h, for CC(C)=CCC[C@](C)(O[C@@H]1O[C@H](CO[C@@H]2O[C@H](CO)[C@@H](O)[C@H](O)[C@H]2O)[C@@H](O)[C@H](O)[C@H]1O)[C@H]1CC[C@]2(C)[C@@H]1[C@H](O)C[C@@H]1[C@@]3(C)CC[C@H](O[C@@H]4O[C@H](CO)[C@@H](O)[C@H](O)[C@H]4O[C@@H]4O[C@H](CO)[C@@H](O)[C@H](O)[C@H]4O)C(C)(C)[C@@H]3CC[C@]12C [GRb1, ginsenoside Rb1]
Response: 69.5

Prompt: Would you mind telling me what concentration at 3 h value was observed for CC(C)=CCC[C@](C)(O[C@@H]1O[C@H](CO)[C@@H](O)[C@H](O)[C@H]1O)[C@H]1CC[C@]2(C)[C@@H]1[C@H](O)C[C@@H]1[C@@]3(C)CC[C@H](O)C(C)(C)[C@@H]3[C@@H](O[C@@H]3O[C@H](CO)[C@@H](O)[C@H](O)[C@H]3O)C[C@]12C [GRg1, ginsenoside Rg1] ?
Response: 0.53
